- test.target: OPTN(26–119) E50K (human, UniProt Q96CV9 26-119, E50K)
- assay.notes: ITC
reported.metric: pKd
# log scale: pKd equals minus log10 of the concentration in mol/L

Q: For TBK1 CTD (residues 677–729) (domain or fragment) YPSSNTLVEMTLGMKKLKEEMEGVVKELAENNHILERFGSLTMDGGLRNVDCL , what is its reported pKd?
A: 7.00
